- Tested on: Hepatitis B virus
- measurement.description: Antiviral activity against Hepatitis B virus infected human HepG2.2.15 cells assessed as HBsAg secretion at 100 […] after 9 days by ELISA
- Assay type: functional
- cond: HepG2 2.2.15, 216 h
inhibition in vivo at 0.1 mg/kg of 4% or higher: Satisfied. Under 4%: Not satisfied.

Solved cases (5 shown):
> print(dat)
                                   molecule          tested.on  qualitative.label
1  COc1cc2c(c(OC)c1OC)-c1c(cc3c(c1O)OCO3)C[C@H](C)[C@@](C)(O)[C@H]2OC(C)=O [SCHISANWILSONIN F]  Hepatitis B virus      Not satisfied
2  COc1cc2c(c(OC)c1OC)-c1c(cc(O)c(OC)c1O)C[C@H](C)[C@@](C)(O)[C@H]2OC(=O)c1ccccc1 [SCHISANWILSONIN G]  Hepatitis B virus      Not satisfied
3  C/C=C(\C)C(=O)O[C@H]1c2cc(OC)c(OC)c(OC)c2-c2c(cc3c(c2O)OCO3)C[C@H](C)[C@@]1(C)O [SCHISANWILSONIN B]  Hepatitis B virus          Satisfied
4  COc1cc2c(c(OC)c1OC)-c1c(cc3c(c1O)OCO3)C[C@H](C)[C@@](C)(O)[C@H]2OC(=O)C(C)C [SCHISANWILSONIN E]  Hepatitis B virus      Not satisfied
5  C/C=C(\C)C(=O)O[C@H]1c2cc(OC)c(OC)c(OC)c2-c2c(cc(O)c(OC)c2O)C[C@H](C)[C@@]1(C)O [SCHISANWILSONIN D]  Hepatitis B virus          Satisfied

Evaluate COc1cc2c(c(OC)c1OC)-c1c(cc(OC)c(OC)c1OC)C[C@H](C)[C@H](C)C2 [SCHISANDRIN A] : inhibition in vivo at 0.1 mg/kg at minimum 4%?
Satisfied

For this molecule, is measured inhibition in vivo at 0.1 mg/kg 4% or higher? COc1cc2c(c(O)c1OC)-c1c(cc(OC)c(OC)c1OC)C[C@](C)(O)[C@@H](C)C2 [GOMISIN H]
Not satisfied

====

- measurement.description: Cytotoxicity against human HepG2(2.2.15) cells at 50 ug/mL by MTT assay
- Format: cell-based
- cond: read-out: GI
test.readout: inhibition at 50 ug/mL

# return recorded inhibition at 50 ug/mL for input "COc1cc2c(c(O)c1OC)-c1c(cc(OC)c(OC)c1OC)C[C@@H](C)[C@@H](C)C2"
≥ 25%
